assay: solvent given as SMILES; conditions: in C1COCCO1

| compound | absorption maximum / nm |
| --- | --- |
| COc1ccc(C2=C/C(=C\c3ccc(C#N)cc3)C(=O)O2)cc1OC | 428 |
| N#CC(C#N)=C(/C=C/c1cn(-c2ccccc2)nc1-c1ccccc1)c1ccccc1 | 399 |
| CN(C)c1ccc(C#Cc2ccc(C=O)cc2)cc1 | 375.01 |
| COC(=O)c1ccc(/C=C2\N=C(c3ccc([N+](=O)[O-])cc3)NC2=O)cc1 | 405 |
| CCCCCCCCCCCCCCCC[n+]1ccc(/C=C/c2ccc(N(C)C)cc2)cc1 | 463 |
| O=C1C=C(Nc2ccccc2)CCC1 | 302 |
| CN(C)c1ccc(/C=C/c2nc3c4ccccc4c4ccccc4c3[nH]2)cc1 | 389 |
| CCN(CC)c1ccc2cc(/C=C(\C#N)c3nc4ccccc4s3)c(=O)oc2c1 | 498 |
| Clc1nc(Nc2ccccc2)nc(Nc2ccc3cc4ccccc4cc3c2)n1 | 398 |
| CN(C)c1nc(N)c2nc(C#N)n(Cc3ccccc3)c2n1 | 339 |
| COc1ccc(/C=C/C(=O)c2ccccc2O)cc1OC | 354 |
| O=C1/C(=C2\Sc3ccc(S(=O)(=O)O)cc3C2=O)Sc2ccc(S(=O)(=O)O)cc21 | 530 |
| N#Cc1c[nH]c2ccccc12 | 277.3 |
| NS(=O)(=O)c1ccc(N2N=C(c3ccc(O)cc3)CC2c2ccc([N+](=O)[O-])cc2)cc1 (stereo unspecified) | 353 |
| CN(C)c1ccc(C#Cc2ccc3ccc4c(C#Cc5ccc(N(C)C)cc5)ccc5ccc2c3c54)cc1 | 430 |
| Cc1ccc(C2=C3C=CC(/C=C/c4ccccc4)=[N+]3[B-](F)(F)n3c(Cl)ccc32)cc1 | 569 |
| c1ccc(-c2nc(-c3nc(-c4ccccc4)c(-c4ccccc4)o3)oc2-c2ccccc2)cc1 | 343 |
| COc1ccc(/C=C/C2=NC(=C\c3ccncc3)/C(=O)N2C)cc1 | 422 |
| COc1nc(Cl)nc(Nc2ccc3cc4ccccc4cc3c2)n1 | 394 |
| CCN(CC)c1ccc2c(C#N)c(/C=C(\C#N)c3nc4ccccc4s3)c(=O)oc2c1 | 561 |
| N#Cc1ccc(/C=C2\C=C(c3ccccc3)NC2=O)cc1 | 438 |
| O=C1Nc2ccccc2/C1=C/C(=O)c1ccc(Cl)cc1Cl | 337 |
| CCOC(=O)c1sc2nc(-c3ccccc3)c(C)c(C#N)c2c1N | 420 |
| COC(=O)c1ccc(C#Cc2ccc(N(C)C)cc2)cc1 | 360.5 |
| CN(C)c1ccc(C2=Cc3ccc4ccccc4[n+]3[B-](F)(F)O2)cc1 | 472 |
| CCCCCCCCC1(CCCCCCCC)c2cc(C=O)ccc2-c2ccc(/C=C/c3ccc(N(c4ccccc4)c4ccccc4)cc3)cc21 | 411 |
| c1ccc(Nc2nc(Nc3ccccc3)nc(Nc3ccc4c5cccc6cccc(c7cccc3c74)c65)n2)cc1 | 444 |
| CC1=N/C(=C\c2ccncc2)C(=O)N1C | 357 |
| Nc1ccccc1C(=O)O | 338 |
| COC(=O)/C(C#N)=C/c1cn(-c2ccccc2)nc1-c1ccc([N+](=O)[O-])cc1 | 333 |
| Cc1cnc(NC(=O)C2=C(O)c3ccccc3S(=O)(=O)N2C)s1 | 342 |
| Nc1ccc2c(c1)Cc1ccccc1-2 | 322 |
| Cc1cc2ccc(-c3cccc4cccc(-c5ccc6cc(C)c(=O)oc6c5)c34)cc2oc1=O | 324 |
| Cc1cc(=O)c2ccc(N)cc2o1 | 314 |
| c1ccc(-c2nc(-c3ccc(-c4ccc(-c5nc(-c6ccccc6)c(-c6ccccc6)o5)cc4)cc3)oc2-c2ccccc2)cc1 | 353 |
| O=C1OC(c2ccccc2)=N/C1=C\c1ccc(N(c2ccc(/C=C3\N=C(c4ccccc4)OC3=O)cc2)c2ccc(/C=C3/N=C(c4ccccc4)OC3=O)cc2)cc1 | 502 |
| CCn1c2ccccc2c2cc(/C=C3\C(=O)c4ccccc4S3(=O)=O)ccc21 | 443 |
| O=C1/C(=C2\Sc3ccc(S(=O)(=O)Nc4ccccc4)cc3C2=O)Sc2ccc(S(=O)(=O)Nc3ccccc3)cc21 | 534 |
| CC(C)CN1C(=O)/C(=C/c2ccc([N+](=O)[O-])cc2)C=C1c1ccccc1 | 456 |
| F[B-]1(F)n2c(-c3ccccc3)cnc2-c2cccc[n+]21 | 394 |
| O=c1oc2ccccc2cc1-c1nc2ccccc2o1 | 357 |

These entries and their values trace back to the Deep4Chem optical property database.
